experimental-system: Oxysterols receptor LXR-beta (Homo sapiens, UniProt P55055); note: assay procedure not described here
Sequence (P55055 whole entry): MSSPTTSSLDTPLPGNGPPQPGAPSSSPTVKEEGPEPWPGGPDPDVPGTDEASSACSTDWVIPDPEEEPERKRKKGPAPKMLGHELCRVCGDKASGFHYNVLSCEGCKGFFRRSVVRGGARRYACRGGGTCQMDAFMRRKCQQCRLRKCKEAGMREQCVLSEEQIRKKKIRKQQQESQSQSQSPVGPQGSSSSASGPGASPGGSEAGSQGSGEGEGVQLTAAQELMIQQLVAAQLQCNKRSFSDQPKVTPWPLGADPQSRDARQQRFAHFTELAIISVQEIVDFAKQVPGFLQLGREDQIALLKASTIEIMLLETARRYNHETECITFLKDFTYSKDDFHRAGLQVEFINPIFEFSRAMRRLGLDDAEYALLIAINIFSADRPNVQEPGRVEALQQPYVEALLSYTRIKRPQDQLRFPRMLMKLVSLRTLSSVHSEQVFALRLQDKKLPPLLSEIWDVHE
Type: functional
assay-readout: AC50

Item CC1(C)S[C@@H]2[C@H](NC(=O)[C@H](N)c3ccc(O)cc3)C(=O)N2[C@H]1C(=O)O has what recorded AC50?
4.1 µM

Item CNC(=O)c1cc(Oc2ccc(NC(=O)Nc3ccc(Cl)c(C(F)(F)F)c3)c(F)c2)ccn1 has what recorded AC50?
> 30 µM

Item CC(/C=C1\SC(=S)N(CC(=O)O)C1=O)=C\c1ccccc1 has what recorded AC50?
> 30 µM

Item CCOc1cc(CC(=O)N[C@@H](CC(C)C)c2ccccc2N2CCCCC2)ccc1C(=O)O [REPAGLINIDE] has what recorded AC50?
> 30 µM
